Target: AM2 receptor (1321N1 cells transfected with CALCRL+RAMP3) (Homo sapiens, UniProt O60896+Q16602)
Construct: host or cells: 1321N1 cells
Sequence (Q16602 23-461): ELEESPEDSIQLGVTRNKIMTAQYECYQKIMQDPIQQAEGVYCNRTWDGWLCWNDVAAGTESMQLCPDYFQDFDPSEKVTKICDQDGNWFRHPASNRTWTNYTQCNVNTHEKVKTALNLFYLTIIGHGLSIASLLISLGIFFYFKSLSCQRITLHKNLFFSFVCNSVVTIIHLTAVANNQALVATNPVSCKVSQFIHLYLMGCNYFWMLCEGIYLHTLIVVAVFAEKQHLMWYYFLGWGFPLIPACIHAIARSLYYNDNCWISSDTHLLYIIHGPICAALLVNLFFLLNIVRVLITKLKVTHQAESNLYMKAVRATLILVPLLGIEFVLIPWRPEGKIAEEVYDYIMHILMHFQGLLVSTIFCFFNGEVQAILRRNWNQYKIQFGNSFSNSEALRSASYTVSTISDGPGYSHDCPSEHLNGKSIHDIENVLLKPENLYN
Sequence (O60896 24-148): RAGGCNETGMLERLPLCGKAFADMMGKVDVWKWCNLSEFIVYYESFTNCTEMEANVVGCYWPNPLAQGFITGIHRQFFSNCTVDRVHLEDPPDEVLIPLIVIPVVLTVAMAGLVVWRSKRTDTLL
Test: AM2 receptor inhibition, LANCE cAMP agonist-antagonist competition assay
Assay type: cell-based
Conditions: inhibition of AM induced cAMP activation, read-out: AM2 D2 protocol: pIC50 (converted)
Procedure: Compounds were assessed for their ability to inhibit ligand-induced elevations of cAMP, using the Perkin Elmer LANCE cAMP assay using commercially-available cells expressing a specific receptor of interest using the following general procedure: […] The ability of a compound to inhibit the AM induced cAMP activation in AM2 receptor-expressing cells (1321N1 cells transfected with CALCRL+RAMP3, sourced from DiscoverX catalogue number 95-0169C6) was assessed using the protocol above.
Below, each entry is listed alongside its reported IC50.
Just the number please, in nM, no unit attached.

Solved cases (5 shown):
molecule	IC50 (nM)
CNCc1ccccc1CN(CC(=O)Nc1ccc2c(c1)C[C@@]1(C2)C(=O)Nc2ncccc21)C(=O)C1(C)CCN(C(=O)CC2CCNCC2)CC1 [Example 7]	4.07
CCC1(C(=O)N(CC(=O)Nc2ccc3c(c2)C[C@@]2(C3)C(=O)Nc3ncccc32)Cc2ccccc2CNC)CCN(C(=O)CN2CCC(F)(F)CC2)CC1 [Example 95]	12.6
CNCc1ccccc1CN(CC(=O)Nc1ccc2c(c1)CC1(C2)C(=O)Nc2ncccc21)C(=O)C1(C)CCN(CC(F)(F)F)CC1 (stereo not drawn) [Example 38]	10.5
CNCc1ccccc1CN(CC(=O)Nc1cc2c(cc1C)CC1(C2)C(=O)Nc2ncccc21)C(=O)C1(C)CCNCC1 (stereo not drawn) [Example 128]	87.1
CNCc1ccccc1CN(CC(=O)Nc1ccc2c(c1)C[C@@]1(C2)C(=O)Nc2ncccc21)C(=O)C1(C)CCN(C(=O)c2ncccn2)CC1 [Example 18]	7.41

Kindly note the recorded IC50 for CCC1(C(=O)N(CC(=O)Nc2ccc3c(c2)C[C@@]2(C3)C(=O)Nc3ncccc32)Cc2ccccc2CN)CCN(C(C)=O)CC1 [Example 133] , which is 6.92

Memo: CCC1(C(=O)N(CC(=O)Nc2ccc3c(c2)C[C@@]2(C3)C(=O)Nc3ncccc32)Cc2ccccc2CNC)CCN(C(=O)c2cn[nH]c2)CC1 [Example 85] , reported IC50: 3.8

For this molecule ( CNCc1cc(F)ccc1CN(CC(=O)Nc1ccc2c(c1)C[C@@]1(C2)C(=O)Nc2ncccc21)C(=O)C1(C)CCN(C(C)=O)CC1 [Example 138] ), measured IC50 is 501

The recorded IC50 for entry CCC1(C(=O)N(CC(=O)Nc2ccc3c(c2)C[C@@]2(C3)C(=O)Nc3ncccc32)Cc2ccccc2CNC)CCN(C(=O)c2cncs2)CC1 [Example 86] equals 1.26

What the record says about CCOC(=O)N1CCC(CC)(C(=O)N(CC(=O)Nc2ccc3c(c2)C[C@@]2(C3)C(=O)Nc3ncccc32)Cc2ccccc2CNC)CC1 [Example 115] : IC50 is 24.5

Given item CNCc1ccccc1CN(CC(=O)Nc1ccc2c(c1)C[C@@]1(C2)C(=O)Nc2ncccc21)C(=O)C1(C)CCN(C(=O)N2CCNCC2)CC1 [Example 56] , the value recorded as its IC50 is 13.2

Reported IC50 ( CCC1(C(=O)N(CC(=O)Nc2ccc3c(c2)C[C@@]2(C3)C(=O)Nc3ncccc32)Cc2ccccc2CNC)CCN(C(=O)NC)CC1 [Example 100] ) = 4.07

----------
target: AM2 receptor (1321N1 cells transfected with CALCRL+RAMP3) (Homo sapiens, UniProt O60896+Q16602); construct: host or cells: 1321N1 cells; experiment: AM2 receptor inhibition, LANCE cAMP agonist-antagonist competition assay; assay type: cell-based; settings: inhibition of AM induced cAMP activation, read-out: AM2 D2 protocol: pIC50 (converted)
Catalogue of IC50 values
The reply should contain only the number, in µM.

compound	IC50 [µM]
CC(=O)N1CCC(C)(C(=O)N(CC(=O)Nc2ccc3c(c2)C[C@@]2(C3)C(=O)Nc3ncccc32)Cc2ccccc2CN)CC1	0.148
CC1(C(=O)N(CC(=O)Nc2ccc3c(c2)C[C@@]2(C3)C(=O)Nc3ncccc32)Cc2ccccc2CN)CCNCC1	0.302
CCC1(C(=O)N(CC(=O)Nc2ccc3c(c2)C[C@@]2(C3)C(=O)Nc3ncccc32)Cc2ccccc2CNC)CCN(C(=O)c2ccn(C)n2)CC1	0.00224
CCC1(C(=O)N(CC(=O)Nc2ccc3c(c2)C[C@@]2(C3)C(=O)Nc3ncccc32)Cc2ccccc2CNC)CCN(C(=O)N2CC(C(F)(F)F)C2)CC1	0.0234
CNCc1ccccc1CN(CC(=O)Nc1ccc2c(c1)C[C@@]1(C2)C(=O)Nc2ncccc21)C(=O)C1(C)CCN(C(=O)c2ccncn2)CC1	0.00295

The recorded IC50 for CNCc1ccccc1CN(CC(=O)Nc1ccc2c(c1)CC1(C2)C(=O)Nc2ncccc21)C(=O)C1(C)CCN(C(=O)C2CCC2)CC1 (stereo not drawn) is 0.00148

----------
molecular target: AM2 receptor (1321N1 cells transfected with CALCRL+RAMP3) (Homo sapiens, UniProt O60896+Q16602); construct: host or cells: 1321N1 cells; assay: AM2 receptor inhibition, LANCE cAMP agonist-antagonist competition assay; assay type: cell-based; settings: inhibition of AM induced cAMP activation, read-out: AM2 D2 protocol: pIC50 (converted)
Entries annotated with measured IC50
Return type: number; implicit unit nM.

compound	IC50, nM
CNCc1ccccc1CN(CC(=O)Nc1ccc2c(c1)C[C@@]1(C2)C(=O)Nc2ncccc21)C(=O)C1(C)CCN(CC2CCNCC2)CC1	1.55
CNCc1ccccc1CN(CC(=O)Nc1ccc2c(c1)C[C@@]1(C2)C(=O)Nc2ncccc21)C(=O)C1(C(C)C)CCN(C(C)=O)CC1	214
CNCc1ccccc1CN(CC(=O)Nc1ccc2c(c1)C[C@@]1(C2)C(=O)Nc2ncccc21)C(=O)C1(C)CCN(C(=O)C[C@@H]2CCNC2)CC1	18.2
CCC1(C(=O)N(CC(=O)Nc2ccc3c(c2)C[C@@]2(C3)C(=O)Nc3ncccc32)Cc2ccccc2CNC)CCN(C(=O)OC)CC1	20
CNCc1ccccc1CN(CC(=O)Nc1ccc2c(c1)CC1(C2)C(=O)Nc2ncccc21)C(=O)C1(C)CCN(C(=O)c2ccccn2)CC1 (stereo not drawn)	0.759

Okay, next one:
Record CNCc1ccccc1CN(CC(=O)Nc1ccc2c(c1)CC1(C2)C(=O)Nc2ncccc21)C(=O)C1(C)CCN(C(=O)C2CC2)CC1 (stereo not drawn) , field IC50: 4.27

----------
# Lookup of reported IC50 keyed by entry
Target: AM2 receptor (1321N1 cells transfected with CALCRL+RAMP3) (Homo sapiens, UniProt O60896+Q16602)
Construct: host or cells: 1321N1 cells
Assay: AM2 receptor inhibition, LANCE cAMP agonist-antagonist competition assay
Format: cell-based
Settings: inhibition of AM induced cAMP activation, read-out: AM2 D2 protocol: pIC50 (converted)
Description: Compounds were assessed for their ability to inhibit ligand-induced elevations of cAMP, using the Perkin Elmer LANCE cAMP assay using commercially-available cells expressing a specific receptor of interest using the following general procedure: […] The ability of a compound to inhibit the AM induced cAMP activation in AM2 receptor-expressing cells (1321N1 cells transfected with CALCRL+RAMP3, sourced from DiscoverX catalogue number 95-0169C6) was assessed using the protocol above.
The reply should be a number in nM, with the unit left off.

Before answering, review these 5 worked examples.
molecule	IC50, nM
CNCc1ccccc1CN(CC(=O)Nc1ccc2c(c1)C[C@@]1(C2)C(=O)Nc2ncccc21)C(=O)C1(C)CCN(C(=O)N2CCC2)CC1 [Example 54]	3.8
CNCc1ccccc1CN(CC(=O)Nc1ccc2c(c1)C[C@@]1(C2)C(=O)Nc2ncccc21)C(=O)C1(C)CCN(C(=O)C2CCNCC2)CC1 [Example 9]	5.13
CCC1(C(=O)N(CC(=O)Nc2ccc3c(c2)C[C@@]2(C3)C(=O)Nc3ncccc32)Cc2ccccc2CNC)CCN(C(=O)c2cc(C(C)(C)C)nn2C)CC1 [Example 92]	13.2
CCC1(C(=O)N(CC(=O)Nc2ccc3c(c2)C[C@@]2(C3)C(=O)Nc3ncccc32)Cc2ccccc2CNC)CCN(C(=O)N2CC(F)C2)CC1 [Example 111]	15.5
CCC1(C(=O)N(CC(=O)Nc2ccc3c(c2)C[C@@]2(C3)C(=O)Nc3ncccc32)Cc2ccccc2CNC)CCNCC1 [Example 67]	0.575

So, CNCc1ccccc1CN(CC(=O)Nc1ccc2c(c1)CC1(C2)C(=O)Nc2ncccc21)C(=O)C1(C)CCN(CC(=O)O)CC1 (stereo not drawn) [Example 45] ? Its IC50 was 2.34

Data point: CCC1(C(=O)N(CC(=O)Nc2ccc3c(c2)C[C@@]2(C3)C(=O)Nc3ncccc32)Cc2ccccc2CNC)CCN(C(=O)c2cccc(C(F)(F)F)n2)CC1 [Example 78] ; IC50 = 112
